Could you please report measured GTP binding, percent of control for the items listed next?
target: GTPase HRas (Homo sapiens); assay: Ras wt fluorescent GTP loading blockade – biochemical, wildtype, multiplex bead flow cytometry, dose response (AID 1335); details: bead-based flow cytometry, Bodipy-GTP binding to GST-Ras; at 100 µM (top of the series) unless noted
Report as a plain number; the unit % is understood.

Input line: Recall and state the measured GTP binding, percent of control for Cc1ccccc1NC(=O)C1CCCN1S(=O)(=O)c1cccc2cccnc12 (stereo unspecified) .
Output line: 84.8

Input line: Recall and state the measured GTP binding, percent of control for CC(C)C(=O)N1CCN(c2ccccc2NC(=O)c2cccc(Cl)c2)CC1 .
Output line: 82.2

Input line: Recall and state the measured GTP binding, percent of control for C/C(=N\Nc1cc(C)nc(-c2ccccc2)n1)c1cccc([N+](=O)[O-])c1 .
Output line: 77.8

Input line: Recall and state the measured GTP binding, percent of control for COCCNc1nc(=S)[nH]c2cc(OC)c(OC)cc12 .
Output line: 43.7

Input line: Recall and state the measured GTP binding, percent of control for COc1ccc(OC)c(C(C(=O)NCc2ccco2)N(C(=O)Cn2nnc3ccccc32)C2CC2)c1 (stereo unspecified) .
Output line: 58

Input line: Recall and state the measured GTP binding, percent of control for CC1(C)CC2CC(C)(CN2C(=O)c2cccs2)C1 (stereo unspecified) .
Output line: 59.5

Input line: Recall and state the measured GTP binding, percent of control for COc1cccc(CNCc2sc(C(=O)O)cc2C)c1 .
Output line: 87.2

Input line: Recall and state the measured GTP binding, percent of control for O=C(O)CCCCCNS(=O)(=O)c1cccc2c1C(=O)c1ccccc1C2=O .
Output line: 45.9

Input line: Recall and state the measured GTP binding, percent of control for CCOc1ccc2nc(NC(=O)CSc3nc(-c4ccccc4)c(C#N)c(=O)[nH]3)sc2c1 .
Output line: 70

Input line: Recall and state the measured GTP binding, percent of control for CCN(CC)c1ccc2c(c1)oc(=O)c1c(Cl)cc(=O)oc12 .
Output line: 72.6

Input line: Recall and state the measured GTP binding, percent of control for CCN(CC)c1ccc(/C=N/OCC(=O)Nc2cccc(C)c2)cc1 .
Output line: 74.6

Input line: Recall and state the measured GTP binding, percent of control for O=C(N/N=C/c1c(O)n(Cc2ccccc2)c(=O)c2ccccc12)c1cccnc1 .
Output line: 75.7

Input line: Recall and state the measured GTP binding, percent of control for CCOc1ccc(CCNc2ccc3nnc(-c4ccccc4)n3n2)cc1OCC .
Output line: 54.2

Input line: Recall and state the measured GTP binding, percent of control for COc1ccc([N+](=O)[O-])cc1NC(=S)NC(NC(=O)Cc1ccc(OC)c(OC)c1)C(Cl)(Cl)Cl (stereo unspecified) .
Output line: 139

Input line: Recall and state the measured GTP binding, percent of control for CCCc1cc(N2CCN(C(=O)c3ccco3)CC2)n2c(nc3ccccc32)c1C#N .
Output line: 79

Input line: Recall and state the measured GTP binding, percent of control for O=C(C1CCCO1)N1CCN(C(=S)Nc2ccccc2C(F)(F)F)CC1 (stereo unspecified) .
Output line: 64.3

Input line: Recall and state the measured GTP binding, percent of control for Cn1cc([C@@H]2C[C@H]3CN(Cc4cccc(Cl)c4)C(=O)[C@]34CCCN24)c2ccccc21 .
Output line: 111

Input line: Recall and state the measured GTP binding, percent of control for CCC(C)(C)c1ccc(OCCCC[n+]2ccccc2)c(C(C)(C)CC)c1 .
Output line: 78.7

Input line: Recall and state the measured GTP binding, percent of control for O=C(O)c1cc2ccccc2nc1OCCc1ccccc1 .
Output line: 222

Input line: Recall and state the measured GTP binding, percent of control for CCC(OC(=O)c1cc2sccc2n1C)C(=O)NCc1ccco1 (stereo unspecified) .
Output line: 63

Input line: Recall and state the measured GTP binding, percent of control for Cc1[nH]c2ccccc2c1C(=O)CNc1nccs1 .
Output line: 58

Input line: Recall and state the measured GTP binding, percent of control for Cc1ccc2c(c1)c1nnc(SCC(=O)N3CCCc4ccccc43)nc1n2CC(=O)O .
Output line: 37.8

Input line: Recall and state the measured GTP binding, percent of control for CCOc1ccc(-n2c(-c3ccco3)n[nH]c2=S)cc1 .
Output line: 112

Input line: Recall and state the measured GTP binding, percent of control for O=C(c1n[nH]c(=O)c2ccccc12)N1CCN(C2c3ccccc3-c3ccccc32)CC1 .
Output line: 156

Input line: Recall and state the measured GTP binding, percent of control for O=C(NCc1cccs1)c1cccn2c(=O)c3sccc3nc12 .
Output line: 69.2

Numbers sourced from PubChem BioAssay.
